Target: Cyclooxygenase-2 (human recombinant, expressed in Sf9 cell) (Homo sapiens)
Construct: purchased Cayman 60122; host or cells: Sf9 cell
Sequence (P35354 18-604): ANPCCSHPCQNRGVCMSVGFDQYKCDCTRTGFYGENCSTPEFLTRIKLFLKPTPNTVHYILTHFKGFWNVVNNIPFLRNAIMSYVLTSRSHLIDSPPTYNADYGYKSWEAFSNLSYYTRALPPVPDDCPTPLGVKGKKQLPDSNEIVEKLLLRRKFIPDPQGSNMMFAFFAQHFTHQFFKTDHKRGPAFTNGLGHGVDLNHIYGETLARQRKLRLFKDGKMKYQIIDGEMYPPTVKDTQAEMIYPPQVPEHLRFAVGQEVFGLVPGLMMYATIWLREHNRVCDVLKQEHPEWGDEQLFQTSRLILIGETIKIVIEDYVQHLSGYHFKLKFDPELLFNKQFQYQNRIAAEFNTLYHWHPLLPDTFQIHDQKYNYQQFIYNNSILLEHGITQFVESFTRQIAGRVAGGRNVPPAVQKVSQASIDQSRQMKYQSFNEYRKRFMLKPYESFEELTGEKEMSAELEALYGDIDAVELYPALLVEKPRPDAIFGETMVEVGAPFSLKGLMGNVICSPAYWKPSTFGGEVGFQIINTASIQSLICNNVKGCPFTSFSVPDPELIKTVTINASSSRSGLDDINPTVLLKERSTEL
Test: Cox-2 assay: human recombinant cyclooxygenase-2, PGE2 by EIA
Format: biochemical
Conditions: human recombinant enzyme, 0.3 μM arachidonic acid, PGE2
OUTCOME_MEASURE: IC50

// below: answered compounds
Query: Please look at this compound and report its IC50: CCc1cc(-c2ccccc2)cc2c3c([nH]c12)C(CC)(CCO)OCC3 (stereo not drawn)
Response: < 10 µM

Query: Annotate the compound CCC1(CCO)OCCc2c1[nH]c1c(Cl)cccc21 (stereo not drawn) with its measured IC50.
Response: > 300 µM

Query: Tell me its IC50 given CCc1cccc2c3c([nH]c12)[C@@](CC)(CCO)OCC3 as the entry.
Response: > 300 µM

Query: Item CCc1cc(Br)cc2c3c([nH]c12)C(CC)(CCO)OCC3 (stereo not drawn) : provide IC50
Response: > 100 µM

Query: Read off the recorded IC50 for CCC1(CCO)OCCc2c1[nH]c1c(C(C)C)cccc21 (stereo not drawn)
Response: > 300 µM

Further cases:
Query: Return reported IC50. Input compound: CCc1cccc2c3c([nH]c12)C(CC)(CC(=O)O)OCC3 (stereo not drawn) [Etodolac, reference compound]
Response: > 300 µM

###

Test system: Daudi human Burkitt Lymphoma derived tumors
Test: Daudi lymphoma murine xenograft model, efficacy
Format: in vivo, male SCID mice
Details: time for the tumors to grow to 8× the initial volume at dosing; control 14.5 d
Description: Male SCID mice, 6-8 weeks of age, obtained from Simonsen Laboratories, Inc. (Gilroy, Calif.) were housed in groups of five. […] Body weights and tumor volume of all mice were measured and recorded twice weekly. Tumors were measured in three dimensions and volume calculated using the formula: […]. Time for the tumors (days) to grow to 4× and 8× the initial volume at dosing were assessed. […]
Listed next: entries and their corresponding 8× Growth.
Enter your answer as a number in days; do not include the unit.

See these solved cases before continuing.
Query: Please list 8× Growth recorded for the molecule CCc1cc(Br)cc2c3c([nH]c12)C(CC)(CCO)OCC3 (centres unmarked) [Compound 47]
Response: 21.5

Query: Note 8× Growth for the molecule shown: CCc1cc(-c2ccccc2)cc2c3c([nH]c12)C(CC)(CCO)OCC3 (centres unmarked) [Compound 1]
Response: 21.1

Query: Given CCc1cccc2c3c([nH]c12)[C@@](CC)(CC(=O)O)OCC3 [R-etodolac, reference compound] , respond with its 8× Growth.
Response: 17

Further cases:
Query: Find the measured 8× Growth of CCC1(CCO)OCCc2c1[nH]c1c(C(C)C)cccc21 (centres unmarked) [Compound 36] and report it.
Response: 20.8

Query: Supply 8× Growth value. Item: O=C(O)CCCc1ccc(N(CCCl)CCCl)cc1 [Chlorambucil, chlorambucil, reference compound]
Response: 21

All values here come from patent US7446122B2.
